Data credit: PubChem BioAssay AID1963961

test system: K98450-129-R-PDC multicell spheroids, viability; test: Anticancer human tumor K98450-129-R-PDC patient-derived colon adenocarcinoma cell line growth inhibition [PI3K]; conditions: second compound 0.316 µM; first compound 0.00316 µM; hits give low values
reported metric: viability, T/C (%)
Answers are plain numbers, in %.

The cases that follow already have their viability, T/C on record.
- compound: "CC(=O)c1c(C)c2cnc(Nc3ccc(N4CCNCC4)cn3)nc2n(C2CCCC2)c1=O + CC(Nc1ncnc2nc[nH]c12)c1cc2cccc(Cl)c2c(=O)n1-c1ccccc1"
  viability, T/C [%]: 93.7
- compound: "Cn1ncnc1[C@H]1c2n[nH]c(=O)c3cc(F)cc(c23)N[C@@H]1c1ccc(F)cc1 + CC(Nc1ncnc2nc[nH]c12)c1cc2cccc(Cl)c2c(=O)n1-c1ccccc1"
  viability, T/C [%]: 112
- compound: "CCN1CCN(Cc2ccc(Nc3ncc(F)c(-c4cc(F)c5nc(C)n(C(C)C)c5c4)n3)nc2)CC1 + CC(Nc1ncnc2nc[nH]c12)c1cc2cccc(Cl)c2c(=O)n1-c1ccccc1"
  viability, T/C [%]: 101
- compound: "CC(C)n1nc(-c2ccc3oc(N)nc3c2)c2c(N)ncnc21 + CC(Nc1ncnc2nc[nH]c12)c1cc2cccc(Cl)c2c(=O)n1-c1ccccc1"
  viability, T/C [%]: 81.3

Request: Which viability, T/C is reported for this compound? CC(C)n1nc(-c2ccc3oc(N)nc3c2)c2c(N)ncnc21 + COc1c(OCCCN2CCOCC2)ccc2c3n(c(=NC(=O)c4cnc(N)nc4)nc12)CCN3
Response: 66.1

====

tested on: K98450-129-R-PDC multicell spheroids, viability; experiment: Anticancer human tumor K98450-129-R-PDC cell line growth inhibition [PI3K]; settings: second compound 0.0316 µM; first compound 3.16 µM; hits give low values;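 note: spheroids exposed to agents for seven days before read-out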
reported metric: viability, T/C (%)
Numbers only, in %.

The cases that follow already have their viability, T/C on record.
- compound: "C#Cc1c(F)ccc2cc(O)cc(-c3ncc4c(N5CC6CCC(C5)N6)nc(OCC56CCCN5CC(F)C6)nc4c3F)c12 (stereo not given) + CC(Nc1ccc2c(c1)OCCn1cc(N3C(=O)OCC3C(F)F)nc1-2)C(N)=O"
  subject of test: "K98450-129-R-PDC multicell spheroids, viability"
  viability, T/C (%): 98.5
- compound: "C#Cc1c(F)ccc2cc(O)cc(-c3ncc4c(N5CC6CCC(C5)N6)nc(OCC56CCCN5CC(F)C6)nc4c3F)c12 (stereo not given) + Cc1nc(NC(=O)N2CCCC2C(N)=O)sc1-c1ccnc(C(C)(C)C(F)(F)F)c1"
  subject of test: "K98450-129-R-PDC multicell spheroids, viability"
  viability, T/C (%): 93.7
- compound: "CNC(=O)c1ccc(N2C(=S)N(c3ccc(C#N)c(C(F)(F)F)c3)C(=O)C2(C)C)cc1F + COc1c(OCCCN2CCOCC2)ccc2c3n(c(=NC(=O)c4cnc(N)nc4)nc12)CCN3"
  subject of test: "K98450-129-R-PDC multicell spheroids, viability"
  viability, T/C (%): 95.7
- compound: "CC(C)NCC(C(=O)N1CCN(c2ncnc3c2C(C)CC3O)CC1)c1ccc(Cl)cc1 (stereo not given) + COc1c(OCCCN2CCOCC2)ccc2c3n(c(=NC(=O)c4cnc(N)nc4)nc12)CCN3"
  subject of test: "K98450-129-R-PDC multicell spheroids, viability"
  viability, T/C (%): 89.8
- compound: "CC1(C)CCC(CN2CCN(c3ccc(C(=O)NS(=O)(=O)c4ccc(NCC5CCOCC5)c([N+](=O)[O-])c4)c(Oc4cnc5[nH]ccc5c4)c3)CC2)=C(c2ccc(Cl)cc2)C1 + CC(Nc1ncnc2nc[nH]c12)c1cc2cccc(Cl)c2c(=O)n1-c1ccccc1"
  subject of test: "K98450-129-R-PDC multicell spheroids, viability"
  viability, T/C (%): 84.8

Give viability, T/C for all compounds that follow.
1. CCCS(=O)(=O)Nc1ccc(F)c(C(=O)c2c[nH]c3ncc(-c4ccc(Cl)cc4)cc23)c1F + CC(Nc1ncnc2nc[nH]c12)c1cc2cccc(Cl)c2c(=O)n1-c1ccccc1
2. Cn1ncc(Cl)c1-c1cc(C(=O)NC(CN)Cc2cccc(F)c2)sc1Cl (stereo not given) + CC(Nc1ncnc2nc[nH]c12)c1cc2cccc(Cl)c2c(=O)n1-c1ccccc1
3. CCCS(=O)(=O)Nc1ccc(F)c(C(=O)c2c[nH]c3ncc(-c4ccc(Cl)cc4)cc23)c1F + CC(Nc1ccc2c(c1)OCCn1cc(N3C(=O)OCC3C(F)F)nc1-2)C(N)=O
4. CNC(=O)c1ccc(N2C(=S)N(c3ccc(C#N)c(C(F)(F)F)c3)C(=O)C2(C)C)cc1F + Cc1nc(NC(=O)N2CCCC2C(N)=O)sc1-c1ccnc(C(C)(C)C(F)(F)F)c1
5. CCCS(=O)(=O)Nc1ccc(F)c(C(=O)c2c[nH]c3ncc(-c4ccc(Cl)cc4)cc23)c1F + Cc1nc(NC(=O)N2CCCC2C(N)=O)sc1-c1ccnc(C(C)(C)C(F)(F)F)c1

Response:
[85.5, 98.1, 136, 109, 124]
